Numbers sourced from ChEMBL document CHEMBL1156829.

Readings of pEC50 for the listed compounds
# Tested on: Plasmodium falciparum
# assay-notes: NOVARTIS: Inhibition of Plasmodium falciparum 3D7 (drug-susceptible) proliferation in erythrocyte-based infection assay
# Format: functional, organism-based
# conditions: Plasmodium falciparum, 3D7
pEC50: −log10 of the molar value. Counter-ions that a name gives are not always drawn.

compound | limit-operator | pEC50
CC(C)N1CC=C(c2c[nH]c3ccccc23)CC1 | = | 6.69
O=C1CC(c2ccc([N+](=O)[O-])cc2)C2=C(CC(c3ccc(F)cc3)CC2=O)N1 (configuration not stated) | = | 5.69
Cc1cccc(C)c1NC(=O)CN1C(=O)C(C)(C)Oc2ccc(C(=O)NC(C)(C)C)cc21 | < | 5.03
CC1CC2(C)Oc3ccccc3CC2C(C)C1CNCCCN(C)C (configuration not stated) | = | 6.62
Oc1ccc(C2Nc3ccc4ccccc4c3C3C=CCC32)cc1 (configuration not stated) | = | 6.09
COCCn1nnnc1C(c1cc2cc3c(cc2[nH]c1=O)OCCO3)N1CCC(O)CC1 (configuration not stated) | < | 5.90
CCCCNC(=O)c1ccc(OC2CCN(CC3CCCCC3)CC2)c(Cl)c1 | = | 6.19
CCOC(=O)N1CCC(n2c(SCC(=O)N3CCCCCC3)nc3ccccc3c2=O)CC1 | = | 5.13
NC12CC3CC(C1)CC(SSC14CC5CC(CC(N)(C5)C1)C4)(C3)C2 | = | 6.68
CCOc1ccc(Nc2cc(C)nc3ccc(OCC)cc23)cc1 | < | 5.90
CN(C)CCN1CCN(c2ccnc3cc4ccccc4cc23)CC1 | = | 6.96
C#CCNC(=O)c1ccc(OC2CCN(CC3CCCCC3)CC2)c(Cl)c1 | = | 6.30
COc1ccc(OC)c(-c2ccc(O)c(CNCCc3ccccc3)c2)c1 | = | 6.18
Cc1ccc(-n2cc(C(=O)N(C)Cc3ccccc3)c3ccccc3c2=O)cc1C | < | 5.01
Clc1ccc(-c2c[n+](Cc3ccccc3Cl)c3n2CCC3)cc1Cl | = | 6.13
O=c1c([N+](=O)[O-])cccn1Cc1ccc(F)cc1Cl | = | 6.45
CCCc1ccc(OCCNC(=O)CCNC(=O)Nc2cccc(Cl)c2)cc1 | < | 5.86
COc1ccc(-c2cn3c([n+]2-c2ccccc2)SCC3)cc1 | = | 6.24
Cc1ccc(S(=O)(=O)NCCCCNc2ccnc3cc(Cl)ccc23)cc1 | = | 6.24
COc1ccc(C(=NO)C2CC2c2ccc(Cl)cc2)cc1 (configuration not stated) | = | 6.13
CCCS(=O)(=O)N1CCC(CO)(Cc2ccccc2C(F)(F)F)CC1 | = | 5.90
CCC(C(=O)Oc1ccccc1-c1nc2ccccn2c1NC(C)(C)CC(C)(C)C)c1ccccc1 (configuration not stated) | = | 6.16
CCC(c1nc2ccccc2c(=O)n1-c1cccc(Cl)c1)N(CCC(C)C)C(=O)COCc1ccccc1 (configuration not stated) | = | 5.92
COc1cc2c(OC3OCC(OC)C(OC)C3O)c3c(c(-c4ccc5c(c4)OCO5)c2cc1OC)C(=O)OC3 (configuration not stated) | = | 7.09
COc1ccc(N2CCN(c3ncnc4sc(C(=O)NCc5cccnc5)c(C)c34)CC2)cc1 | < | 4.95
Cc1ccc(NC2=C(c3ccc(C(F)(F)F)cc3)C(=O)c3ccccc32)cc1F | = | 6.27
CCC1CCCCN1CCCNC(=O)c1cn(CC)c(=O)c2cc(OC)c(OC)cc12 (configuration not stated) | = | 6.35
CN(CCCNc1ccnc2cc(Cl)ccc12)C(=O)c1cccc(C(F)(F)F)c1 | = | 7.07
O=C(NC(=S)Nc1ccc(NC(=O)c2cccs2)cc1)c1ccco1 | = | 6.33
c1cc(NCc2ccc3c(c2)OCO3)n2ncc(-c3ccoc3)c2n1 | < | 5.90
CCOC(=O)C1=C(C)N(c2ccc(OCC)cc2)C(=O)C1=Cc1ccc(C(C)C)cc1 | = | 5.46
CC1(C)N=C(N)N=C(N)N1c1ccc(Cl)cc1 [CHLORCYCLOGUANIL HYDROCHLORIDE] | = | 9.01
Oc1ccc(-c2ccc3c(c2)OCO3)cc1CNC12CC3CC(CC(C3)C1)C2 | = | 6.08
O=C(Nc1ccc([N+](=O)[O-])cc1Cl)c1cc(Br)ccc1O | < | 4.90
CCOC(=O)c1cnc2c(OC)cccc2c1Nc1cccc(C(F)(F)F)c1 | = | 6.03
Cc1ccc(-n2c(SCc3ccc(F)cc3)nnc2C(Cc2ccccc2)NC(=O)NC(C)(C)C)cc1 (configuration not stated) | = | 6.48
COC(=O)C1=C(C)NC(=Cc2cc(C)n(-c3cc(C)ccc3OC)c2C)C1=O | = | 7.46
Cc1ccn2c(NC(C)(C)CC(C)(C)C)c(-c3ccccc3OC(=O)N(C)C)nc2c1 | = | 6.24
CC(=O)NC1=NN(C(C)=O)C(C)(c2ccc([N+](=O)[O-])cc2)S1 (configuration not stated) | = | 6.30
C#CCNC(=O)c1ccc(OC2CCN(CC(c3ccccc3)c3ccccc3)CC2)c(OC)c1 | = | 6.68
O=C1C(N2CCCCC2)=C(N2CCCCC2)C(=O)c2ccccc21 | = | 6.86
CCN(CC)CCNc1ccc(Nc2ccnc3cc4ccccc4cc23)cc1 | = | 7.55

====

# Test system: Plasmodium falciparum
# assay-notes: NOVARTIS: Inhibition of Plasmodium falciparum W2 (drug-resistant) proliferation in erythrocyte-based infection assay
# Format: functional, organism-based
# conditions: Plasmodium falciparum, W2; read-out: EC50
pEC50: −log10 of the molar value.
Readings of pEC50 for the listed molecules
test-readout: pEC50

molecule | limit-operator | measurement
CC(=O)C(=NNc1cc(C(F)(F)F)cc(C(F)(F)F)c1)C(C)=O | = | 7.57
COc1cc(CNc2ccc3nc(N)nc(N)c3c2)cc(OC)c1OC | < | 5.90
COc1ccc(C2CC(=O)C3=C(C2)NC(=O)CC3c2ccc([N+](=O)[O-])cc2)cc1OC (stereo not given) | = | 7.19
COc1ccc(C(=O)N2C(C(=O)Nc3ccccc3F)CSC2c2ccc(C(C)(C)C)cc2)cc1 (stereo not given) | = | 6.10
CCCCCCN(C(=O)COCc1ccccc1)C(CC)c1nc2ccccc2c(=O)n1-c1cccc(Cl)c1 (stereo not given) | = | 7.12
COc1ccc(N2C(=O)C3C(C2=O)C2(c4ccccc4)C(=O)C3(c3ccccc3)C(c3ccc4c(c3)OCO4)=C2c2ccc3c(c2)OCO3)c([N+](=O)[O-])c1 (stereo not given) | = | 6.03
Cc1ccc(N2C(=O)c3sc4nnc(C)c(=O)n4c3C2=O)cc1 | = | 6.50
COc1ccc(OCCOCCN2CCN(C)CC2)cc1 | < | 4.90
Cn1ccnc1C1CCCCN1C(=O)c1cc(COc2ccc(F)cc2Cl)on1 (stereo not given) | = | 6.17
CCOC(=O)CCS(=O)(=O)c1ccc(Br)cc1 | < | 5.83
N#Cc1ccc2c(c1)nc1c3ccc4c5c(ccc(c(=O)n21)c53)C(=O)NC4=O | = | 6.06
COc1ccc2c(c1)C=C([C@@H]1C[C@H]3CN(c4ccccc4)C(=O)[C@]34CCCN14)CO2 | = | 6.54
Cc1cccc(-c2nc3cc(NC(=O)c4ccc([N+](=O)[O-])o4)ccc3o2)c1 | < | 4.90
CCCOc1ccc(C=Nc2ccc(S(=O)(=O)Nc3ccccn3)cc2)cc1 | = | 6.09
Cc1oc2c(c1C(=O)N1CCCC1)C(=O)c1ccccc1C2=O | = | 5.98
CC1CC(C)CN(CCCNc2ccc(C(=O)Nc3ccc(C(F)(F)F)cc3)cc2[N+](=O)[O-])C1 (stereo not given) | = | 6.40
COCCOC(=O)C1=C(C)NC2=C(C(=O)CC(c3ccc(OC)c(OC)c3)C2)C1c1ccccc1C (stereo not given) | = | 7.49
CCCCN1C(=O)/C(=C/N(C(=O)CC)c2ccccc2)SC1=S | < | 6.07
O=C1NN=C(CC(=O)N2CC[C@@H](c3ccccc3)[C@H](O)C2)C2C=CC=CC12 (stereo not given in full) | < | 5.80
COc1ccc2c(c1)c(C)cc[n+]2Cc1ccccc1 | = | 6.93

====

# Tested on: Plasmodium falciparum
# assay-notes: NOVARTIS: Inhibition of Plasmodium falciparum W2 (drug-resistant) proliferation in erythrocyte-based infection assay
# Assay type: functional, organism-based
# conditions: Plasmodium falciparum, W2; read-out: EC50
Sorting guide: entries reporting EC50 beneath 600 nM go in the rule met pile, the rest go in the rule not met pile.

molecule | study-target | class
O=C(Nc1ccc(Nc2cc([N+](=O)[O-])ccc2O)c2c1C(=O)c1ccccc1C2=O)c1ccccc1 | Plasmodium falciparum | rule not met
CCN(CC)c1ccc(C2N(Cc3ccccc3)CCN2Cc2ccccc2)c(O)c1 | Plasmodium falciparum | rule not met
COc1cccc2c1[C@@H](OC)[C@@]13O[C@]1(C2=O)[C@H](O)[C@@H](C)[C@](O)(C(=O)[C@@H]1O[C@H]1C)[C@H]3O | Plasmodium falciparum | rule met
CCc1ccc(-n2nnc(C(=O)Nc3ccccc3Cl)c2C)cc1 | Plasmodium falciparum | rule met
O=C(/C=C/c1ccccc1)Nc1ccc(C(=O)OC[C@@H]2CCCN3CCCC[C@H]23)cc1 | Plasmodium falciparum | rule not met
CCCNC(=O)N1CCC2(CC1)CC(=O)c1ccccc1O2 | Plasmodium falciparum | rule not met
N#C/C(=C\n1cc(Cc2ccc(Cl)cc2Cl)c2ccccc21)c1nn(CCO)c(N)c1C#N | Plasmodium falciparum | rule not met
Cc1c(Cl)cccc1NC(=O)c1cccnc1Cl | Plasmodium falciparum | rule not met
Cn1c(=O)n(C)c2cc(C=NN=c3[nH]cc(-c4ccccc4)s3)ccc21 | Plasmodium falciparum | rule not met
CCCCC(=O)N(C)CCCNc1ccnc2cc(Cl)ccc12 | Plasmodium falciparum | rule met
Cc1ccn2c(NC(C)(C)CC(C)(C)C)c(-c3ccccc3OC(=O)c3ccc4ccccc4c3)nc2c1 | Plasmodium falciparum | rule met
CCOC(=O)c1ccc2nc(C)cc(Nc3ccc(N4CCCCC4)cc3)c2c1 | Plasmodium falciparum | rule not met
Cc1ccc2c(Cl)c(C(=O)N3CC(C)OC(C)C3)sc2c1 (stereo unspecified) | Plasmodium falciparum | rule met
O=C(NC1CCN(Cc2ccccc2)CC1)[C@@H](c1ccccc1)N1Cc2ccccc2C1=O | Plasmodium falciparum | rule not met
CC(=O)N1c2ccc([N+](=O)[O-])cc2C(C)(c2ccccc2)CC1(C)C (stereo unspecified) | Plasmodium falciparum | rule met
CCC(=O)N(C1=C(NC)C(=O)c2ccccc2C1=O)C(C)C | Plasmodium falciparum | rule met
CN(CCCNc1ccnc2cc(Cl)ccc12)C(=O)CSc1ccccc1 | Plasmodium falciparum | rule met
CCOc1ccc(C2c3[nH]c4ccccc4c3CCN2C(=O)c2cc3cc(Br)ccc3o2)cc1 (stereo unspecified) | Plasmodium falciparum | rule met
CCOC(=O)c1[nH]c2ccccc2c1N=NN(C)C | Plasmodium falciparum | rule met
CC(=O)N(C1=C(N(C)C)C(=O)c2ccccc2C1=O)c1cc(C)cc(C)c1 | Plasmodium falciparum | rule met
